Source listed as patent US20140155415A1.

TARGET OF ASSAY: GK-GKRP (glucokinase / glucokinase regulatory protein) (Homo sapiens, UniProt Q14397)
PROCEDURE SUMMARY: GKRP LC MS/MS Biochemical Assay (LCMS/MS)
RUN CONDITIONS: formation of 13C-glucose-6-phosphate from 13C-glucose by LC MS/MS, human His-hepatic GK, fructose-6-phosphate
MEASURED ENDPOINT: EC50 (nM)

[[record]]
compound = "Cc1cc(F)ccc1C(NS(=O)(=O)c1ccc2c(c1)OCCCO2)c1cc2ccccc2o1 (racemic)"
measured_endpoint = "EC50"
meas_value = 440


[1] CSc1ccccc1C(NS(=O)(=O)c1ccc2c(c1)OCCCO2)c1cc2ccncc2s1 (racemic)
[2] C[C@@](O)(c1ccnc(-c2cccc3cc([C@@H](NS(=O)(=O)c4ccc5c(c4)OCCCO5)c4ccccc4)sc23)c1)C(F)(F)F (single isomer, unassigned) [Example 70 Peak #3]
*Q* API: POST /compare with 1 and 2 ; response names the item with higher EC50. // output: label of the selected item
*A* 2
(2: 170 nM, 1: 20 nM)

###

TARGET OF ASSAY: GK-GKRP (glucokinase / glucokinase regulatory protein) (Homo sapiens)
Sequence (Q14397 1-625): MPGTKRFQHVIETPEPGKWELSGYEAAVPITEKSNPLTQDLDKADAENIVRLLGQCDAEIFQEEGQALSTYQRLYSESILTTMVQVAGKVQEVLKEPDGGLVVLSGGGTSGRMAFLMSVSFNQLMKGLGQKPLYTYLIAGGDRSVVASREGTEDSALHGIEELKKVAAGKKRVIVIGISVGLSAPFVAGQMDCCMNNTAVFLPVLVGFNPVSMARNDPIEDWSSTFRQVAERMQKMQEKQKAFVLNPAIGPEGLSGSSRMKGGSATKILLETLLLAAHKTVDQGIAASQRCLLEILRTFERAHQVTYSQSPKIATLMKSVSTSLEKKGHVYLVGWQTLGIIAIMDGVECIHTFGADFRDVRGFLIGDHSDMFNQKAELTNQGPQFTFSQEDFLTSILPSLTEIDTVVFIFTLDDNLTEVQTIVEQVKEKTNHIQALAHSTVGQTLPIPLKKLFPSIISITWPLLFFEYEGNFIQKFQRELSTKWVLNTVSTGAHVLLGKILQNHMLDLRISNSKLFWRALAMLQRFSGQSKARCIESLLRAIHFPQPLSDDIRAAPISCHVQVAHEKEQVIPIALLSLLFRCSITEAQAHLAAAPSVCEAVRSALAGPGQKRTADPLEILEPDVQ
PROCEDURE SUMMARY: GKRP LC MS/MS Biochemical Assay (LCMS/MS)
RUN CONDITIONS: formation of 13C-glucose-6-phosphate from 13C-glucose by LC MS/MS, human His-hepatic GK, fructose-6-phosphate
MEASURED ENDPOINT: EC50 (nM)

[[record]]
compound = "Cc1cccnc1[C@@H](NS(=O)(=O)c1ccc2c(c1)OCCCO2)c1cc2ccccc2o1 (single isomer, unassigned) [Example 26 Peak #2]"
measured_endpoint = "EC50"
meas_value = 85


[A] O=S(=O)(NC(c1cc2ccccc2o1)c1ccccc1OC(F)(F)F)c1ccc2c(c1)OCCCO2 (racemic) [Example 18]
[B] Cc1cccc(C)c1C(NS(=O)(=O)c1ccc2c(c1)OCCCO2)c1cc2ccccc2o1 (racemic) [Example 10]
[C] COc1ccccc1C(NS(=O)(=O)c1ccc2c(c1)OCCCO2)c1cc2ccncc2s1 (racemic) [Example 66]
*Q* Highest EC50 first, then in falling order down to the smallest. API: response body holds the labels in the requested order.
*A* B, A, C
(B: 3800 nM, A: 340 nM, C: 82 nM)
